Reported values of Ki for individual entries
target: Sushi domains (SD1/2) protein; test: Fluorescence polarization (FP) competition assay with AJAP-1probe, calculated Ki; format: binding; details: Table 11, deep mutational scanning validation variants of AJAP-1WT; read-out: Ki (nM) mean ± SEM
Residues, ends and D or L forms follow the SMILES beside them.
Answer with a number only, understood to be in nM.

Would you please look over these solved cases?
# Molecule, Measured Parameter, Measured Value
data = [
    ("CC[C@H](C)[C@H](NC(=O)[C@H](Cc1ccccc1)NC(=O)[C@H](CCC(=O)O)NC(=O)[C@@H](NC(=O)[C@H](CCC(=O)O)NC(C)=O)[C@@H](C)O)C(=O)N[C@@H](C)C(=O)N[C@@H](Cc1c[nH]c2ccccc12)C(=O)NCC(=O)N1CCC[C@H]1C(=O)N[C@H](C(=O)NCC(=O)N[C@@H](CC(=O)O)C(=O)N[C@@H](CC(N)=O)C(=O)N[C@@H](CC(=O)O)C(N)=O)[C@@H](C)O", "Ki", 39),
    ("CC[C@H](C)[C@H](NC(=O)[C@H](Cc1ccccc1)NC(=O)[C@H](CCC(=O)O)NC(=O)[C@@H](NC(=O)[C@H](CCC(=O)O)NC(C)=O)[C@@H](C)O)C(=O)N[C@@H](Cc1c[nH]cn1)C(=O)N[C@@H](Cc1c[nH]c2ccccc12)C(=O)NCC(=O)N1CCC[C@H]1C(=O)N[C@H](C(=O)NCC(=O)N[C@@H](CC(=O)O)C(=O)N[C@@H](CCC(=O)O)C(=O)N[C@@H](CC(=O)O)C(N)=O)[C@@H](C)O [ETEFIHWGPTGDED] (Ac-ETEFIHWGPTGDED-NH2)", "Ki", 24),
    ("CC[C@H](C)[C@H](NC(=O)[C@H](Cc1ccccc1)NC(=O)[C@H](CCC(=O)O)NC(=O)[C@@H](NC(=O)[C@H](CCC(=O)O)NC(C)=O)[C@@H](C)O)C(=O)N[C@@H](C)C(=O)N[C@@H](Cc1c[nH]c2ccccc12)C(=O)NCC(=O)N1CCC[C@H]1C(=O)N[C@H](C(=O)NCC(=O)N[C@@H](CC(=O)O)C(=O)N[C@@H](CCC(=O)O)C(=O)N[C@H](C(N)=O)C(C)C)[C@@H](C)O (Ac-ETEFIAWGPTGDEV-NH2)", "Ki", 40),
    ("CC[C@H](C)[C@H](NC(=O)[C@H](Cc1ccccc1)NC(=O)[C@H](CCC(=O)O)NC(=O)[C@@H](NC(=O)[C@H](CCC(=O)O)NC(C)=O)[C@@H](C)O)C(=O)N[C@@H](C)C(=O)N[C@@H](Cc1c[nH]c2ccccc12)C(=O)NCC(=O)N1CCC[C@H]1C(=O)N[C@H](C(=O)NCC(=O)N[C@@H](CC(=O)O)C(=O)N1CCC[C@H]1C(=O)N[C@@H](CC(=O)O)C(N)=O)[C@@H](C)O (Ac-ETEFIAWGPTGDPD-NH2)", "Ki", 34),
    ("CC[C@H](C)[C@H](NC(=O)[C@H](Cc1ccccc1)NC(=O)[C@H](CCC(=O)O)NC(=O)[C@@H](NC(=O)[C@H](CC(N)=O)NC(C)=O)[C@@H](C)O)C(=O)N[C@@H](C)C(=O)N[C@@H](Cc1c[nH]c2ccccc12)C(=O)NCC(=O)N1CCC[C@H]1C(=O)N[C@H](C(=O)NCC(=O)N[C@@H](CC(=O)O)C(=O)N[C@@H](CCC(=O)O)C(=O)N[C@@H](CC(=O)O)C(N)=O)[C@@H](C)O [NTEFIAWGPTGDED] (Ac-NTEFIAWGPTGDED-NH2)", "Ki", 62),
    ("CC[C@H](C)[C@H](NC(=O)[C@H](Cc1ccccc1)NC(=O)[C@H](CCC(=O)O)NC(=O)[C@@H](NC(=O)[C@H](CCC(=O)O)NC(C)=O)[C@@H](C)O)C(=O)N[C@@H](C)C(=O)N[C@@H](Cc1c[nH]c2ccccc12)C(=O)NCC(=O)N1CCC[C@H]1C(=O)N[C@@H](Cc1ccccc1)C(=O)NCC(=O)N[C@@H](CC(=O)O)C(=O)N[C@@H](CCC(=O)O)C(=O)N[C@@H](CC(=O)O)C(N)=O [ETEFIAWGPFGDED] (Ac-ETEFIAWGPFGDED-NH2)", "Ki", 40),
    ("CC[C@H](C)[C@H](NC(=O)[C@H](Cc1ccccc1)NC(=O)[C@H](CCC(=O)O)NC(=O)[C@@H](NC(=O)[C@H](CCC(=O)O)NC(C)=O)[C@@H](C)O)C(=O)N[C@@H](C)C(=O)N[C@@H](Cc1c[nH]c2ccccc12)C(=O)NCC(=O)N1CCC[C@H]1C(=O)N[C@H](C(=O)NCC(=O)N[C@@H](CC(=O)O)C(=O)N[C@@H](Cc1c[nH]c2ccccc12)C(=O)N[C@@H](CC(=O)O)C(N)=O)[C@@H](C)O (Ac-ETEFIAWGPTGDWD-NH2)", "Ki", 54),
    ("CC[C@H](C)[C@H](NC(=O)[C@H](Cc1ccccc1)NC(=O)[C@H](CCC(=O)O)NC(=O)[C@@H](NC(=O)[C@H](CCC(=O)O)NC(C)=O)[C@@H](C)O)C(=O)N[C@@H](C)C(=O)N[C@@H](Cc1c[nH]c2ccccc12)C(=O)NCC(=O)N1CCC[C@H]1C(=O)N[C@H](C(=O)NCC(=O)N[C@@H](CC(=O)O)C(=O)N[C@@H](CCC(=O)O)C(=O)N[C@@H](Cc1c[nH]c2ccccc12)C(N)=O)[C@@H](C)O (Ac-ETEFIAWGPTGDEW-NH2)", "Ki", 54),
]

Please turn your attention to the following entry.
Request the reported Ki associated with CC[C@H](C)[C@H](NC(=O)[C@H](Cc1ccccc1)NC(=O)[C@H](CCC(=O)O)NC(=O)[C@@H](NC(=O)[C@H](CCC(=O)O)NC(C)=O)[C@@H](C)O)C(=O)N[C@@H](C)C(=O)N[C@@H](Cc1c[nH]c2ccccc12)C(=O)NCC(=O)N1CCC[C@H]1C(=O)N[C@H](C(=O)NCC(=O)N[C@@H](CC(=O)O)C(=O)N[C@@H](Cc1ccccc1)C(=O)N[C@@H](CC(=O)O)C(N)=O)[C@@H](C)O (Ac-ETEFIAWGPTGDFD-NH2)
41
